Target: hGHQ40N (human, UniProt P01241 27-217)
Sequence (P01241 27-217 Q66N): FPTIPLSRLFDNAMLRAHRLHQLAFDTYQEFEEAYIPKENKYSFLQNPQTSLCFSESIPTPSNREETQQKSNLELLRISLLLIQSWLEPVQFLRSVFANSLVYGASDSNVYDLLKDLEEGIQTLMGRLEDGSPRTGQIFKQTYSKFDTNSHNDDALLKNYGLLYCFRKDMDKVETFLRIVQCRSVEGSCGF
Experiment: cell-based or functional assay
Property: RSA Q141

INSERT INTO results (binder, recorded_measurement) VALUES
  ('S. ladakanum GlyPro-TGase mutant S250H (enzyme) GPDSDERVTPPAEPLDRMPDPYRPSYGRAETIVNNYIRKWQQVYSHRDGRKQQMTEEQREWLSYGCVGVTWVNSGQYPTNRLAFAFFDEDKYKNELKNGRPRSGETRAEFEGRVAKDSFDEAKGFQRARDVASVMNKALENAHDEGAYLDNLKKELANGNDALRNEDARSPFYSALRNTPSFKDRNGGNHDPSKMKAVIYSKHFWSGQDRSGSSDKRKYGDPEAFRPDRGTGLVDMSRDRNIPRSPTSPGEHFVNFDYGWFGAQTEADADKTVWTHGNHYHAPNGSLGAMHVYESKFRNWSDGYSDFDRGAYVVTFVPKSWNTAPDKVKQGWP', '2.25 relative to wild type TGase'),
  ('S. ladakanum GlyPro-TGase mutant S250A (enzyme) GPDSDERVTPPAEPLDRMPDPYRPSYGRAETIVNNYIRKWQQVYSHRDGRKQQMTEEQREWLSYGCVGVTWVNSGQYPTNRLAFAFFDEDKYKNELKNGRPRSGETRAEFEGRVAKDSFDEAKGFQRARDVASVMNKALENAHDEGAYLDNLKKELANGNDALRNEDARSPFYSALRNTPSFKDRNGGNHDPSKMKAVIYSKHFWSGQDRSGSSDKRKYGDPEAFRPDRGTGLVDMSRDRNIPRSPTSPGEAFVNFDYGWFGAQTEADADKTVWTHGNHYHAPNGSLGAMHVYESKFRNWSDGYSDFDRGAYVVTFVPKSWNTAPDKVKQGWP', '4.23 relative to wild type TGase'),
  ('S. ladakanum GlyPro-TGase mutant S250W (enzyme) GPDSDERVTPPAEPLDRMPDPYRPSYGRAETIVNNYIRKWQQVYSHRDGRKQQMTEEQREWLSYGCVGVTWVNSGQYPTNRLAFAFFDEDKYKNELKNGRPRSGETRAEFEGRVAKDSFDEAKGFQRARDVASVMNKALENAHDEGAYLDNLKKELANGNDALRNEDARSPFYSALRNTPSFKDRNGGNHDPSKMKAVIYSKHFWSGQDRSGSSDKRKYGDPEAFRPDRGTGLVDMSRDRNIPRSPTSPGEWFVNFDYGWFGAQTEADADKTVWTHGNHYHAPNGSLGAMHVYESKFRNWSDGYSDFDRGAYVVTFVPKSWNTAPDKVKQGWP', '2.43 relative to wild type TGase');
